- assay_system: T1, human CD47 (human, UniProt Q08722 19-139, limits assumed, biotinylated in the ELISAs (site not stated))
- T1 construct: also called biotinylated CD47; CD47 receptor
- T1 sequence (Q08722 19-139 limits assumed): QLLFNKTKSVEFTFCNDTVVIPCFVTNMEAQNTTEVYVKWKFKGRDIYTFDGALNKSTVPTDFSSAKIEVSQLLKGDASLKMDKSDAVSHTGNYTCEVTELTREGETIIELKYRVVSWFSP
- assay_remarks: SPR (BIACORE)
readout_kind: Kd (nM)

[[record]]
binder = "C47A8 (antibody, V domains shown, also called CD47A8) VH: QVQLVQSGAEVKKPGASVKVSCKASGYTFTSYYMHWVRQAPGQGLEWMGIINPSGGSTSYAQKFQGRVTMTRDTSTSTVYMELSSLRSEDTAVYYCARSTLWFSEFDYWGQGTLVTVSS VL: QSVLTQPSSVSASPGQSITISCSGTSSDVGGHNYVSWYQQHPGKAPKLMIYDVTKRPSGVPDRFSGSKSGNTASLTVSGLQAEDEADYYCCSYAGSRVYVFGTGTKLTVL"
measurement = 82.3

[[record]]
binder = "C47A8-CQ (antibody, V domains shown) VH: QVQLVQSGAEVKKPGASVKVSCKASGYTFTSYYMHWVRQAPGQGLEWMGIINPSGGSTSYAQKFQGRVTMTRDTSTSTVYMELSSLRSEDTAVYYCARSTLWFSEFDYWGQGTLVTVSS VL: QSVLTQPSSVSASPGQSITISCSGTSSDVGGHNYVSWYQQHPGKAPKLMIYDVTKRPSGVPDRFSGSKSGNTASLTVSGLQAEDEADYYCQSYAGSRVYVFGTGTKLTVL"
measurement = 156

[[record]]
binder = "C47A8-CS (antibody, V domains shown) VH: QVQLVQSGAEVKKPGASVKVSCKASGYTFTSYYMHWVRQAPGQGLEWMGIINPSGGSTSYAQKFQGRVTMTRDTSTSTVYMELSSLRSEDTAVYYCARSTLWFSEFDYWGQGTLVTVSS VL: QSVLTQPSSVSASPGQSITISCSGTSSDVGGHNYVSWYQQHPGKAPKLMIYDVTKRPSGVPDRFSGSKSGNTASLTVSGLQAEDEADYYCSSYAGSRVYVFGTGTKLTVL"
measurement = 156

[[record]]
binder = "C47B10 (antibody, V domains shown, lambda light chain (captured with anti-human lambda); also called CD47B10) VH: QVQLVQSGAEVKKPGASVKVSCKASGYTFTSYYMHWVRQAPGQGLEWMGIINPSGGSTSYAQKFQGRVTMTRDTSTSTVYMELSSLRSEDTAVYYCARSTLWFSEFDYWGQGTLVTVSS VL: QSVLTQPASVSGSPGQSISISCTGTSSDVGGHNYVSWYQQHPGKAPKLMIYDVRNRPSGVSNRFSGSKSGSTASLTISGLQTEDEADYYCNSYTGSRTYVFGSGTKLTVL"
measurement = 12.1


Every entry's value here was drawn from patent US20160257751A1.
